Please provide measured growth for the entries that follow.
# System: MDA-MB-468 breast
# experimental-details: NCI-60 one-dose screen, 48 h (100 = growth as untreated, 0 = no growth, -100 = all killed)
# experimental-parameters: 10 µM unless noted
About 83,000 compounds went through this panel and 20% of them were active in at least one assay; those are over-represented in the sample as a whole.
Lab book: enter the figure in %, no units written.

Asked: Entry under review: CN1CCC(c2ccccc2)(c2ccccc2)C(=O)C1 . Reported growth?
Given back: -11.8

Asked: Can you look up the measured growth of Fc1ccc2c(c1)c(-c1nc(-c3c[nH]c4ncccc34)cs1)cn2CCCN1CCOCC1 for me?
Given back: 18.3

Asked: What value of growth has been recorded for this entry: OCCN1CCN(CC/C=C2\c3ccccc3Sc3ccc(Cl)cc32)CC1
Given back: -97.1

Asked: State the recorded growth for this entry: O=C1/C(=C/c2ccc(-c3ccc(Br)cc3)o2)SC(=S)N1CCc1ccc(O)cc1
Given back: 90.2

Asked: State the recorded growth for this entry: CCOC(=O)c1noc2c1CCc1cn(Cc3cc(OC)cc(OC)c3)cc1-2
Given back: 108

Asked: Which measured growth value corresponds to CN1CCN(CC#CCn2c3c(c4ccccc42)C[C@]2(C)[C@H]4CC=C5[C@@H]6CC(C)(C)CC[C@]6(C(=O)N6CCOCC6)CC[C@@]5(C)[C@]4(C)CC[C@H]2C3(C)C)CC1 ?
Given back: 79.4

Asked: Recorded growth for CC(=Nc1ccccc1)C1=C(O)C(Cc2ccc(O)cc2)NC1=O (stereo not given) , please?
Given back: 17.6

Asked: Which growth value is on record for CCOc1ccc(-c2nc3ccc(-c4nc5ccc(N6CCN(C)CC6)cc5[nH]4)cc3[nH]2)cc1 ?
Given back: -85.2

Asked: Could you tell me which growth is on file for CCCCCCCCCCCCCCCCCCOc1ccccc1CC(=O)NCC[N+](C)(C)C ?
Given back: 19

Asked: Form field: reported growth of COc1ccc(C2=C/C(=C\c3ccc(Cl)cc3)C(=O)N2/N=C/c2ccc(Cl)cc2)cc1
Given back: 94.3

Asked: Fill in: growth of CCN(CC)c1ccc(/C=N/N=C(N)N)cc1 is ___
Given back: 26

Asked: Could you tell me which growth is on file for Cc1ccc(NCCNCC(O)CO)c2c(=O)c3ccccc3sc12 (stereo not given) ?
Given back: -46.4

Asked: Value lookup for growth; key = O=C1/C=C/[C@@H](O)[C@@H]2C[C@@H](O)C[C@H]2/C=C/CCC[C@@H](C(F)(F)F)O1
Given back: -40.7

Asked: Entry under review: C=C1C(=O)O[C@H]2[C@H]1CC/C(COC(=O)CCSCCC(=O)OC/C1=C/CC[C@@]3(C)O[C@H]3[C@H]3OC(=O)C(=C)[C@@H]3CC1)=C\CC[C@@]1(C)O[C@@H]21 . Reported growth?
Given back: -23.6

Asked: I am curious: what growth value has been reported for CCN(CC)CCSc1c2ccc(Cl)cc2nc2ccc(OC)cc12 ?
Given back: -17.5

Asked: Can you look up the measured growth of COC(=O)C1CCc2sc3ncnc(Nc4cn[nH]c4C(=O)Nc4ccc(CN5CCN(C)CC5)cc4)c3c21 (stereo not given) for me?
Given back: 37.3

Asked: Which growth value is on record for FC(F)(F)c1cccc(-c2nnn(Cc3cc(-c4cccc(Cl)c4)no3)n2)c1 ?
Given back: 102

Asked: Which value of growth has been reported for CSc1nc(-c2ccc(F)cc2)c(C#N)c(N2CCOCC2)n1 in the records?
Given back: 87.3

Asked: Given the compound Nc1cccc2cccc(O)c12 , what is its reported growth?
Given back: 82.6

Asked: Return reported growth; argument: COc1ccc2c(c1)c(-c1nonc1-c1cn(C)c3ccccc13)cn2C
Given back: 13.9

Asked: Look up growth: Cn1c2ccccc2c2c3c(c4c5cc(Br)ccc5n(C)c4c21)C(=O)N(O)C3=O
Given back: -0.278

Asked: What does the data say about its growth? Entry: COc1ccc(/C=N\N2CCOCC2)cc1OC1CCCC1
Given back: 117

Asked: Bench note: what growth did C=C(C)[C@@H]1CC[C@]2(C)[C@H](CC=C3[C@@H]4CC(C)(C)CC[C@]4(C(=O)NCC#CCN4CCN(C)CC4)CC[C@]32C)[C@@]1(C)CCC#N show?
Given back: 47.9

Asked: Fill blank: measured growth of the compound O=C1c2ccccc2C(=O)c2c(Nc3ccc(CCO)cc3)ccc(O)c21 is ____.
Given back: 38

Asked: # query: growth of entry CC(C)(C)CC(C)(C)N(CSc1ccc(Cl)cc1)CSc1ccc(Cl)cc1
Given back: 63.7

Asked: Dear colleague, I am looking for the recorded growth of the following compound: O=C1OC(c2ccc(-c3ccccc3)cc2)=C/C1=C/c1cccs1
Given back: -47.5

Asked: If you can, please state the reported growth value of FC(F)(F)c1cc(-c2nnc3n2N=C(N2CCCC2)CS3)cc(C(F)(F)F)c1 .
Given back: 66.3

Asked: Need growth, item Cn1c2ccccc2c2c3c(c4c5ccccc5n(C)c4c21)C(=O)OC3
Given back: 101

Asked: Tell me the measured growth of Cn1cc(-c2noc(-c3cn(C)c4ncccc34)n2)c2cc(Cl)ccc21 , please.
Given back: 91.3

Asked: Reported growth for O=C1c2ccccc2C(=O)c2c1c(C(=O)NCc1ccccc1)c1ccccn21 : what is it?
Given back: 101

====

# Test system: MDA-MB-468 breast
# experimental-details: NCI-60 one-dose screen, 48 h
# experimental-parameters: 10 µM unless noted
This is part of a sample that, as a whole, favours compounds with a hit. Of some 83,000 tested, about 20% had one in any assay. Active and inactive are the calls of the source. The calls were made as follows: active = growth percent below 10; inactive = the rest.
Respond with a class label; see yes (1) (active), no (0) (inactive)

Asked: Entry O=C(Nc1ccc(-c2ccc3c(c2)NC(=O)/C3=C\c2ccc[nH]2)cc1)NC1CC1 : call = ?
Given back: yes (1)

Asked: Could you check what this test reported for CN1CCN(Cc2ccc(NC(=O)c3cncc(C#Cc4cnn5ccccc45)c3)cc2C(F)(F)F)CC1 ?
Given back: yes (1)

Asked: Status in this test for Cc1ccc(C2CC(c3nc(-c4ccc(Cl)cc4)oc3C)=NN2C(=O)c2ccncc2)cc1 (stereo not drawn) ?
Given back: no (0)

Asked: Field: outcome | Entry: COc1cc(Nc2ncc3c(n2)-c2ccc(Cl)cc2C(c2c(F)cccc2OC)=NC3)ccc1C(=O)O
Given back: no (0)

Asked: Which result was noted for this compound in the test: COc1cc(OC)c(NC(=O)C(Sc2nc(C)cc(C)c2C#N)c2ccccc2)cc1Cl (stereo not drawn)
Given back: no (0)

Asked: Could you check what this test reported for C/C(=C/CCC(C)[C@@H]1CC[C@]2(C)C3=C(CC[C@@]12C)[C@@]1(C)CCC(=O)C(C)(C)[C@@H]1CC3)C(=O)O (stereo partly drawn) ?
Given back: yes (1)

Asked: Status in this test for O=C(c1cc(-c2ccc(Cl)cc2)nc2ccccc12)N1N=C(c2ccccc2)CC1c1cc(-c2ccccc2)nn1-c1ccccc1 (stereo not drawn) ?
Given back: no (0)

Asked: Can you look up the reported call for O=C(NS(=O)(=O)c1ccc2ccccc2c1)n1cc(-c2ccncc2)c(-c2ccc(Cl)c(O)c2)n1 for me?
Given back: no (0)

Asked: What did this assay record as the result for Cc1ccc(-c2[nH][nH]c(=O)c2-c2nc3ccccc3s2)cc1 ?
Given back: no (0)

Asked: Write down the call the test reported for this compound. Item: CCSc1cnnc2ccccc12
Given back: no (0)

Asked: Per the assay record, what outcome was assigned to ClC1=C(Cl)C(Cl)=C(Cl)C1=Cc1ccc(Cl)cc1 ?
Given back: no (0)

Asked: Per the assay record, what outcome was assigned to O=C(CCl)N1CCCc2ccccc21 ?
Given back: no (0)

Asked: So what was the verdict on COc1cnc2c(c1)C(=O)c1c-2n(CCCN2CCOCC2)c(=O)c2cc(F)ccc12 in this test?
Given back: yes (1)

Asked: Any idea what this test logged for Nc1cccc(C(=O)Nc2ccc3c(O)c(N=Nc4ccc(N=Nc5ccc(S(=O)(=O)O)cc5)cc4)c(S(=O)(=O)O)cc3c2)c1 ?
Given back: no (0)

Asked: I'd appreciate the recorded outcome for O=C(Oc1ccccc1[N+](=O)[O-])C1CCCN1C(=O)OCc1ccccc1 (stereo not drawn) from this test.
Given back: no (0)

Asked: Dear all, I need the recorded test outcome for Cc1ccc(-c2nc([P+](c3ccccc3)(c3ccccc3)c3ccccc3)c(Nc3ccccc3)o2)cc1 , thank you.
Given back: yes (1)

Asked: Answer briefly: the call reported for O=S1(=O)N(Cc2ccccc2)[C@@H](Cc2ccccc2)[C@H](O)[C@H](O)[C@H](Cc2ccccc2)N1Cc1ccccc1 in this assay.
Given back: yes (1)

Asked: Please state the recorded outcome for this compound: C=CCn1cc(-c2nc3ccccc3s2)c2cc(-c3ccc4c5c(cccc35)C(=O)N(CCO)C4=O)ccc21
Given back: no (0)

Asked: Please share the test call associated with CCN(CC)CCCCCCNc1cc(OC)c(Cl)c2cccnc12 .
Given back: no (0)

Asked: Hello, I am checking results. What call was entered for CC(=O)Nc1c(Cl)cc2c(c1Cl)Cc1ccccc1-2 ?
Given back: no (0)

Asked: What outcome does the record of this test show for CC(C)c1ccc(S(=O)(=O)NC(=O)NC2CCCC2)cc1 ?
Given back: no (0)

Asked: Can you look up the reported call for N#Cc1c(N)nnn1Cc1cc(=O)oc2c1ccc1ccccc12 for me?
Given back: no (0)

Asked: Lab log entry: CC(C)C1(C(C)C)NC(=O)NC1=O — outcome as called in the assay?
Given back: no (0)

Asked: Fill in: this test's call for COc1cc(-c2ccc[nH]2)[nH]c1/C=C1\N=C(C)C(CC(=O)OCC(C)(C)C)=C1C is ___
Given back: yes (1)

Asked: Dear colleague, could you share the recorded outcome for C=CCn1c(SCC(=O)Nc2cccc(C(=O)/C=C/c3ccccc3)c2)nc2ccccc2c1=O when you have a moment?
Given back: no (0)

Asked: Called result for COc1ccc2c3ccnc(C(F)(F)F)c3n(CCCCN)c2c1
Given back: no (0)

Asked: For this compound, state the assay outcome: COC(=O)/C(CCC=C(C)C)=C1\[C@@H](OC(C)=O)C[C@@]2(C)[C@H]1C[C@@H](O)[C@H]1[C@@]3(C)CC[C@H](NCc4ccccc4)[C@@H](C)[C@@H]3CC[C@@]12C
Given back: no (0)

Asked: Which result was noted for this compound in the test: O=C(CN1N=C(c2ccc(F)cc2)CCC1=O)Nc1nccs1
Given back: no (0)

meta.source: PubChem BioAssay (NCI)
